Test system: LNCaP cells
Assay: LNCaP cell viability assay (MTS)
Format: cell-based
Settings: Homo sapiens, LNCaP, 48 h, LNCaP cell line
observation.type: log10 of GI50 (log10 of the value in µM)

# compound, tested.target, recorded.number
data = [
    ("CC1CCCCC1OCCNS(=O)(=O)c1ccc(OC(F)(F)F)cc1 (stereo not drawn)", "LNCaP cells", 1.18),
    ("CC1CCN(c2ccccc2CNS(=O)(=O)c2ccc(OC(F)(F)F)cc2)CC1", "LNCaP cells", 1.36),
    ("CN(C)CC(NS(=O)(=O)c1ccc(OC(F)(F)F)c(Cl)c1)c1ccc(Cl)c(Cl)c1 (single isomer, unassigned) [Compound 201]", "LNCaP cells", 1.36),
    ("O=S(=O)(NCc1ccccc1COC1CCCCC1)c1ccc(OC(F)(F)F)cc1", "LNCaP cells", 1.36),
    ("CN(C)CC(NS(=O)(=O)c1ccc(Oc2ccccc2)cc1)c1ccc(Cl)cc1 (stereo not drawn)", "LNCaP cells", 1.07),
    ("CN1CCN(CC(NS(=O)(=O)c2ccc(Oc3ccc(C(F)(F)F)cc3)cc2)c2ccc(Cl)cc2)CC1 (stereo not drawn)", "LNCaP cells", 1.05),
    ("CN(C)CC(NS(=O)(=O)c1ccc(OC(F)(F)F)cc1)c1cccc(Cl)c1 (stereo not drawn)", "LNCaP cells", 1.65),
    ("CCOC(=O)C(Cc1cc(Cl)sc1Cl)NS(=O)(=O)c1ccc(OC(F)(F)F)cc1 (stereo not drawn)", "LNCaP cells", 1.76),
    ("CN1CCN(CC(NS(=O)(=O)c2ccc(Oc3ccccc3)cc2)c2ccc(Cl)c(Cl)c2)CC1 (stereo not drawn)", "LNCaP cells", 1.09),
    ("CN(C)CC(NS(=O)(=O)c1ccc(OC2CCCC2)cc1)c1ccc(Cl)c(Cl)c1 (stereo not drawn)", "LNCaP cells", 1.10),
    ("O=S(=O)(NCC1(c2cccc(C(F)(F)F)c2)CCCC1)c1ccc(OC(F)(F)F)cc1", "LNCaP cells", 1.80),
    ("O=S(=O)(NC(CC(F)(F)F)c1ccccc1)c1ccc(OC(F)(F)F)cc1 (stereo not drawn)", "LNCaP cells", 1.58),
    ("CCc1ccc(C(CNS(=O)(=O)c2ccc(OC(F)(F)F)cc2)N2CCCC2)cc1 (stereo not drawn)", "LNCaP cells", 1.75),
    ("COC(=O)C(Cc1ccccc1O)NS(=O)(=O)c1ccc(OC(F)(F)F)cc1 (stereo not drawn)", "LNCaP cells", 1.70),
    ("O=S(=O)(NCC1(c2ccc(Cl)cc2)CCCC1)c1ccc(OC(F)(F)F)cc1", "LNCaP cells", 1.75),
    ("Cc1ccc(C(CN(C)C)NS(=O)(=O)c2ccc(OC(F)(F)F)cc2)cc1 (stereo not drawn)", "LNCaP cells", 1.66),
    ("CN(C)CC(NS(=O)(=O)c1ccc(OC(F)(F)F)cc1Cl)c1ccc(Cl)c(Cl)c1 (stereo not drawn)", "LNCaP cells", 1.37),
    ("CN(C)C(=O)C(NS(=O)(=O)c1ccc(OC(F)(F)F)cc1)c1ccc(Cl)c(Cl)c1 (stereo not drawn)", "LNCaP cells", 1.59),
    ("CC(C)N(C)c1ccccc1CNS(=O)(=O)c1ccc(OC(F)(F)F)cc1", "LNCaP cells", 1.30),
    ("COC(=O)[C@H](Cc1ccc(Cl)c(Cl)c1)NS(=O)(=O)c1ccc(OC(F)(F)F)cc1", "LNCaP cells", 1.76),
    ("O=S(=O)(NCCN1c2ccccc2NS1(=O)=O)c1ccc(OC(F)(F)F)cc1", "LNCaP cells", 1.79),
    ("O=S(=O)(NCC1(c2ccc(Cl)c(Cl)c2)CC1)c1ccc(Oc2ccc(C(F)(F)F)cc2)cc1", "LNCaP cells", 1.68),
    ("Cc1ccccc1C(CN(C)C)NS(=O)(=O)c1ccc(OC(F)(F)F)cc1 (stereo not drawn)", "LNCaP cells", 1.78),
    ("CCCCN(CCCNS(=O)(=O)c1ccc(OC(F)(F)F)cc1)Cc1ccccc1", "LNCaP cells", 1.56),
    ("CCCCC(NS(=O)(=O)c1ccc(OC(F)(F)F)cc1)C(=O)OC(C)(C)C (stereo not drawn)", "LNCaP cells", 1.60),
    ("O=S(=O)(NC(CC1CC1)c1cc(F)cc(Br)c1)c1ccc(OC(F)(F)F)cc1 (stereo not drawn)", "LNCaP cells", 1.23),
    ("CCCCCc1ccc(S(=O)(=O)NC(CN(C)C)c2ccc(Cl)c(Cl)c2)cc1 (stereo not drawn)", "LNCaP cells", 0.88),
    ("Cc1cccc(S(=O)(=O)NC(CN(C)C)c2ccc(Cl)c(Cl)c2)c1 (stereo not drawn)", "LNCaP cells", 1.61),
    ("CCOC(=O)CC(NS(=O)(=O)c1ccc(OC(F)(F)F)cc1)c1cccc(C(F)(F)F)c1 (stereo not drawn)", "LNCaP cells", 1.40),
    ("CCC(NS(=O)(=O)c1ccc(OC(F)(F)F)cc1)(C(=O)OC)c1ccccc1 (stereo not drawn)", "LNCaP cells", 1.84),
    ("CCOC(=O)[C@@H](Cc1ccc(OC)cc1)NS(=O)(=O)c1ccc(OC(F)(F)F)cc1", "LNCaP cells", 1.86),
    ("CN(C)CC(NS(=O)(=O)c1cc(F)cc(F)c1)c1ccc(Cl)c(Cl)c1 (stereo not drawn)", "LNCaP cells", 1.88),
    ("COCCC(NS(=O)(=O)c1ccc(OC(F)(F)F)cc1)c1ccc(Cl)c(Cl)c1 (stereo not drawn)", "LNCaP cells", 1.71),
]
